test system: NCI/ADR-RES ovarian; experiment: NCI-60 one-dose screen, 48 h; conditions: 10 µM unless noted
About 83,000 compounds went through this panel and 20% of them were active in at least one assay; those are over-represented in the sample as a whole. Calls of active or inactive are those of the source. How the source made its calls: active means growth percent below 10; inactive means the rest.
Choose one outcome from this list and give only that: active, inactive

Q: Can you look up the reported call for CCC(CC)(c1ccccc1)C(OC(N)=O)c1ccccc1 (configuration not stated) for me?
Result: inactive

Q: Can you look up the reported call for c1cnc2c(c1)ccc1ncccc12 for me?
Result: inactive

Q: Can you look up the reported call for O=C(N/N=C/c1ccc(N(CCCl)CCCl)cc1)c1cc(=O)[nH]c(=O)[nH]1 for me?
Result: inactive

Q: Can you look up the reported call for CCOC(=O)Nc1cc(Cl)c([N+](=O)[O-])c(NC(=O)OCC)n1 for me?
Result: inactive

Q: Can you look up the reported call for Cc1ccccc1O for me?
Result: inactive

Q: Can you look up the reported call for COc1ccc(/C=C\c2cc(OC)c(OC)c(OC)c2)cc1N/C=C\C(=O)c1c[nH]c2ccccc12 for me?
Result: active

Q: Can you look up the reported call for O=C(CI)Nc1ccc(Br)cc1 for me?
Result: inactive

Q: Can you look up the reported call for O=C1c2ccccc2C(=O)N1[N+](=O)[O-] for me?
Result: inactive

Q: Can you look up the reported call for O=C(/C=C/c1ccccc1)N[C@@H](CO)Cc1cnc[nH]1 for me?
Result: inactive

Q: Can you look up the reported call for CCC(CO)NC1CCCCC1 (configuration not stated) for me?
Result: inactive

Q: Can you look up the reported call for O=[As]c1ccc(C(=O)c2ccc(Oc3ccccc3)cc2)cc1 (configuration not stated) for me?
Result: active

Q: Can you look up the reported call for CC[C@H](C)[C@H](NC(=O)Nc1ccccc1)C(=O)N(C)[C@H](C[C@@H](OC(C)=O)c1nc(C(=O)N[C@@H](Cc2ccccc2)C[C@H](C)C(=O)OC)cs1)C(C)C for me?
Result: inactive

Q: Can you look up the reported call for CCCC(C)(C)c1ccc2c(c1)OC(C)(C)[C@@H]1CC=C(C)C[C@@H]21 for me?
Result: inactive

Q: Can you look up the reported call for CCCCCCCC(=O)OCC/C=C/C1OC1C1OC(=O)/C=C\C=C\c2nc(oc2C)/C=C(/C)CCC2OC2C1OC(=O)NC(C)=O (configuration not stated) for me?
Result: active

Q: Can you look up the reported call for CC(=O)Nc1ccc(Cc2ccc(NC(C)=O)cc2)cc1 for me?
Result: inactive

Q: Can you look up the reported call for O=C(CCCN1CCC2(CC1)C(=O)NCN2c1ccc(F)cc1)c1ccc(F)cc1 for me?
Result: inactive

Q: Can you look up the reported call for CC(C)CCC1(CCO)C(=O)NC(=S)NC1=O for me?
Result: inactive

----------
test system: HL-60(TB) leukemia; test: NCI-60 one-dose screen, 48 h (100 = growth as untreated, 0 = no growth, -100 = all killed); conditions: 10 µM unless noted
About 83,000 compounds went through this panel and 20% of them were active in at least one assay; those are over-represented in the sample as a whole.
Note to self: values exactly at 80% are criterion met. So growth at or above 80% is criterion met, below is criterion not met.

Q: hey, is growth for this one >= 80%? COC(OC)c1ccccc1
Result: criterion not met

Q: hey, is growth for this one >= 80%? CO/C=C/C(=O)c1cc2cnc3c(=N)cc(NC(=O)C(C)C)c([nH]1)c23
Result: criterion not met

Q: hey, is growth for this one >= 80%? N#Cc1c(N2CCOCC2)nc(=S)[nH]c1-c1ccco1
Result: criterion not met

Q: hey, is growth for this one >= 80%? COc1cc2c(c(OC)c1OC)-c1ccc(SC)c(=O)cc1[C@@H](NC1OC(CO)C(O)C(O)C1O)CC2 (some centres undefined)
Result: criterion not met

Q: hey, is growth for this one >= 80%? Cc1cc(=O)oc2cc(Oc3nc(-c4ccccc4)cn4c(-c5ccccc5)cnc34)ccc12
Result: criterion met

Q: hey, is growth for this one >= 80%? c1ccc(Nc2nc(-c3ccccn3)cs2)nc1
Result: criterion not met

Q: hey, is growth for this one >= 80%? COc1cc(CN(c2ccc(C)cc2)C2OC(=O)c3ccccc32)cc(OC)c1OC (centres undefined)
Result: criterion not met

Q: hey, is growth for this one >= 80%? O=C(Nc1nc2ccc(OC(F)(F)F)cc2s1)c1ccc(F)cc1
Result: criterion not met

Q: hey, is growth for this one >= 80%? O=C(O)c1cc([N+](=O)[O-])ccc1Cl
Result: criterion met

Q: hey, is growth for this one >= 80%? O=c1[nH]c(Nc2ccc(S(=O)(=O)O)cc2)nc2nc(Nc3ccc(NC(=S)Nc4ccccc4)cc3)nc(-c3ccc(O)cc3O)c12
Result: criterion met

Q: hey, is growth for this one >= 80%? CCC(=O)OC1=CN2C(=NC(c3ccc(N)cc3)=CC2c2cc(OC)c(OC)c(OC)c2)S1 (centres undefined)
Result: criterion not met

Q: hey, is growth for this one >= 80%? CN(C)CCOc1nc2c3cccnc3cc(-c3cccc(Cl)c3)c2c2ncccc12
Result: criterion not met

Q: hey, is growth for this one >= 80%? Cc1cnc(NC(=O)Nc2cc(Br)c(C)cc2OC[C@@H]2CNCCO2)cn1
Result: criterion not met

Reference source: PubChem BioAssay (NCI)
